- Test system: HOP-62
- measurementNotes: NCI tumour cell line growth inhibition, 48 h
Active and inactive are the calls of the source. Cut-off read from the data, not from the text of the source: active = GI50 up to about 1.1 µM and inactive = higher.
Your reply should match one of these outcome classes. active, inactive

Reference set (5 entries):
INSERT INTO measurements (molecule, measurementtarget, category) VALUES
  ('O=c1oc2ccccc2cc1/C=N/N1C(=S)N(c2ccccc2)C(=N\c2ccccc2)/C1=N/c1ccccc1', 'HOP-62', 'inactive'),
  ('CC1=C2CCCC2C/C(=N/Nc2ccc([N+](=O)[O-])cc2[N+](=O)[O-])CC1 (stereo unspecified)', 'HOP-62', 'inactive'),
  ('COC(=O)[C@@]1(NC(=O)C(CC(=O)OC(C)(C)C)NC(=O)OC(C)(C)C)C[C@H]1C (stereo partly specified)', 'HOP-62', 'inactive'),
  ('COc1cc2c(c(OC)c1OC)C(=O)c1c(O)cc(C)c(OC)c1C2=O', 'HOP-62', 'inactive'),
  ('C=CC[C@@H]1C=C[C@@H](C(=O)OC)n2c(=O)n(-c3ccccc3)c(=O)n21', 'HOP-62', 'inactive');

Incoming: # outcome recorded in this test, key = `COc1cc(N(CCC#N)CCC#N)ccc1/C=C1\SC(=S)NC1=O`
Outgoing: inactive

Incoming: Per the records of this test, what outcome belongs to `CN(C)c1ccc2nc3c(C(=O)O)cc(O)c(O)c3[o+]c2c1` ?
Outgoing: inactive

Incoming: Tell me the recorded outcome of this test for `Nc1nc(CCC(=O)Nc2cccc(C(F)(F)F)c2)cc(-c2ccc3ccccc3c2)n1` .
Outgoing: inactive

Incoming: Hi team, can someone confirm the assay call for `ClCc1ccc2ccc3ccc(CCl)nc3c2n1` ?
Outgoing: inactive
